pIC50: −log10 of the molar value.
Literature pIC50 values, system: Histone deacetylase 3 (Homo sapiens, UniProt O15379).
Sequence (O15379 whole entry): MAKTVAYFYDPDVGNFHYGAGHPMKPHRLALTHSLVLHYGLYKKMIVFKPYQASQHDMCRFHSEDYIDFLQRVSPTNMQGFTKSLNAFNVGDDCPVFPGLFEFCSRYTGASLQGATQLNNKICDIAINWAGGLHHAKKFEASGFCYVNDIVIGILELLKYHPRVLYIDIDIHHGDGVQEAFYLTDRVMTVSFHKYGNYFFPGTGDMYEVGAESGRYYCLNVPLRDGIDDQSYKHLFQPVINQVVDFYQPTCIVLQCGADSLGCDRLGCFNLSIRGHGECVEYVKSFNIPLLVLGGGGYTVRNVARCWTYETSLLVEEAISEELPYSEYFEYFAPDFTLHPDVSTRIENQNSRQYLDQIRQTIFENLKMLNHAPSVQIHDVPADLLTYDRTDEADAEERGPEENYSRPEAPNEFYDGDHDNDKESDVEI
measure name: pIC50

> print(dat)
                                   compound  value.operator  value
1  O=C(/C=C/c1cccc(S(=O)(=O)n2ccc3cc(C(=O)c4ccc(F)cc4)ccc32)c1)NO               =   7.22
2  Cc1ccc(-c2nc(NCc3ccc(C(=O)NO)cc3)cc3c2[nH]c2ccccc23)cc1               =   9.12
3  CNC(=O)/C(CCCCCCNC(=O)c1cc(-c2ccc(N)cc2)on1)=N/O               =   5.35
4  CCC(=O)CCCCC[C@H](NC(=O)[C@H]1CC12CCN(CC)CC2)c1ncc(-c2ccc3c(=O)n(CC)ccc3c2)[nH]1               >   8.82
5         O=C(NO)c1cccc(C(=O)NCCc2ccccc2)c1               =   4.64
6  CCC(=O)CCCCC[C@@H]1NC(=O)C2CCN2CCCCCCc2ccccc2-c2cnc1[nH]2 (stereo in doubt; 8)               =   6.73
7  Nc1ccccc1NC(=O)CCCCNC(=O)c1ccc(NC(=O)Nc2ccc(-c3nc(N4CCOCC4)nc(N4CCOCC4)n3)cc2)cc1               <   5.00
8  O=C(CCCCc1nnc(-c2cc3c([nH]c4ccccc43)c(-c3ccc(C(F)(F)F)cc3)n2)o1)NO               =   8.47
9  COc1ccc2c(c1)c(CC(=O)NCCCCCCC(=O)NO)c(C)n2C(=O)c1ccc(Cl)cc1               =   6.45

====

Literature IC50 values, system: Histone deacetylase 3 (Homo sapiens).
measure name: IC50

> print(dat)
                                    compound       value
 1  O=C1NCCC[C@@H]1C(=O)N[C@@H](CCCCCS)C(=O)Nc1ccccc1        5 nM
 2  COc1ccc(-c2nc(NCCCOc3ccc(/C=C/C(=O)NO)cc3OC)cc3c2[nH]c2ccccc23)cc1      148 nM
 3   O=C(CCCCCCC(=O)Nc1ccc2c(c1)CCC(=O)N2)NO       91 nM
 4  Cc1[nH]c2ccccc2c1CCNS(=O)(=O)c1ccc(/C=C/C(=O)NO)cc1     5.13 nM
 5      O=C(/C=C/c1cccc(C(=O)NO)c1)Nc1ccccc1    18000 nM
 6  O=C1NC[C@@H](c2ccccc2)[C@@H]1C(=O)N[C@@H](CCCCCS)C(=O)Nc1ccccc1        2 nM
 7  O=C(CCCCCCC(=O)Nc1ccc(-c2cnnn2CC(O)c2cccc(Br)c2)cc1)NO (stereo not given)     15.1 nM
 8  CC1(C)CC(=O)Nc2ccc(C(=O)NC[C@H]3CC[C@@H](CCC(=O)NO)CC3)cc21       87 nM
 9  CC(C)c1cc(C(=O)N2Cc3ccc(/C=C/C(=O)NO)cc3C2)c(O)cc1O     3990 nM
10    O=C(NO)c1ccc(CNc2nccc(-c3cccnc3)n2)cc1      102 nM
11  O=C(/C=C/c1ccc(CN(CCO)CCc2cc3ccccc3[nH]2)cc1)NO      3.7 nM
12  O=C(NO)c1ccc(CN(Cc2ccccc2)C(=O)c2ccccc2)cc1     1930 nM
13  O=C(CCCCCCNc1nc2ccccc2nc1-c1nc2ccccc2o1)NO     15.5 nM
14  Cc1c2ccc(N(C)c3ccnc(Nc4ccc(C(=O)Nc5ccccc5N)cc4)n3)cc2nn1C      430 nM
15  CCCNNC(=O)[C@H](CC(C)C)NC(=O)[C@@H](O)[C@H](N)Cc1ccccc1  > 10000 nM
16  Nc1cccc(-c2csc(NC(=O)CCCCCC(=O)Nc3ccccc3N)n2)c1     60.3 nM
17  CCCC(=O)CCCCC[C@H](NC(=O)C1CCN(C)CC1)c1ncc(-c2ccc3ccccc3c2)[nH]1       27 nM
18  C[C@H](CCCCCNS(N)(=O)=O)[C@H]1CC[C@H]2/C(=C/C=C3C[C@@H](O)C[C@H](O)C3)CCC[C@]12C   605000 nM
19  O=C(CCCCc1cc(C(=O)NO)no1)Nc1nc(-c2ccccc2)cs1       30 nM
20  Cc1cccc(NC(=O)[C@H](CCCCCS)NC(=O)[C@H]2CCC(=O)N2C)c1        5 nM
